Data origin, for the record: paper PMC7801115

Listing of recorded solubility kinetic at 2 h by entry.
measurement_notes: Kinetic solubility
Assay type: physicochemical
applied_conditions: aqueous buffer, kinetic from dmso stock, phosphate buffer 50 mM, pH 7.4, 1% DMSO, 37 °C

compound: Cl.c1ccc2sc(-c3nc4ccc(C5=NCCCN5)cc4s3)cc2c1 [Compound 5e]
solubility kinetic at 2 h: 30 to 100 µM
--
compound: c1ccc2sc(-c3nc4cc(C5=NCCCN5)ccc4[nH]3)cc2c1 [Compound 6d]
solubility kinetic at 2 h: 10 to 30 µM
--
compound: c1ccc2cc(-c3nc4cc(C5=NCCCN5)ccc4[nH]3)ccc2c1 [Compound 6f]
solubility kinetic at 2 h: 30 to 100 µM

Consider the record given below.
QUERY: Read the entry FC(F)(F)c1ccc(-c2nc3cc(C4=NCCCN4)ccc3[nH]2)cc1 [Compound 6c] and write its reported solubility kinetic at 2 h.
RESULT: > 100 µM

* * *

measurement_notes: Stability in plasma
Type: in vitro ADME
applied_conditions: mouse plasma, 37 °C
test_readout: remaining at 4 h, 5 µM (%)

structure_smiles: c1ccc2c(c1)cc(-c1nc3cc(C4=NCCCN4)ccc3[nH]1)c1ccccc12
unit_descriptor: %
remaining at 4 h, 5 µM: 81

A = Cl.c1ccc2sc(-c3nc4ccc(C5=NCCCN5)cc4s3)cc2c1
B = N#Cc1ccc(-c2nc3cc(C4=NCCCN4)ccc3[nH]2)cc1
QUERY: Task for the reader: decide whether A or B has the larger remaining at 4 h, 5 µM. Please respond with the label that marks your chosen entry.
RESULT: B

* * *

measurement_notes: Metabolic stability in liver microsomes
Format: in vitro ADME
applied_conditions: 60 min
test_readout: Microsomes (1 µM) Predicted in vivo hep CL, Mouse

Here are 2 compounds together with their reported answers.
compound: FC(F)(F)c1ccc(-c2nc3cc(C4=NCCCN4)ccc3[nH]2)cc1 [Compound 6c]
result: <30 %LBF
--
compound: c1ccc2c(-c3nc4ccc(C5=NCCCN5)cc4[nH]3)c[nH]c2c1 [Compound 6e]
result: 78 %LBF

QUERY: Indicate the recorded Microsomes (1 µM) Predicted in vivo hep CL, Mouse value for this compound: c1ccc2sc(-c3nc4cc(C5=NCCCN5)ccc4[nH]3)cc2c1 [Compound 6d]
RESULT: 71 %LBF

QUERY: Quick one: give measured Microsomes (1 µM) Predicted in vivo hep CL, Mouse for Cl.FC(F)(F)c1ccc(-c2nc3ccc(C4=NCCCN4)cc3s2)cc1 [Compound 5c]
RESULT: <30 %LBF

QUERY: Supply measured Microsomes (1 µM) Predicted in vivo hep CL, Mouse of c1ccc2cc(-c3nc4cc(C5=NCCCN5)ccc4[nH]3)ccc2c1 [Compound 6f] in your reply.
RESULT: 77 %LBF

QUERY: Report measured Microsomes (1 µM) Predicted in vivo hep CL, Mouse; entry is c1ccc(-c2nc3cc(C4=NCCCN4)ccc3[nH]2)cc1 [Compound 6a]
RESULT: 41 %LBF

QUERY: Entry Cl.N#Cc1ccc(-c2nc3ccc(C4=NCCCN4)cc3s2)cc1 [Compound 5b] needs its Microsomes (1 µM) Predicted in vivo hep CL, Mouse filled in; supply it.
RESULT: <30 %LBF

QUERY: Quote Microsomes (1 µM) Predicted in vivo hep CL, Mouse reported for Cl.c1ccc2nc(-c3nc4ccc(C5=NCCCN5)cc4s3)ccc2c1 [Compound 5d] please.
RESULT: <30 %LBF

QUERY: Output Microsomes (1 µM) Predicted in vivo hep CL, Mouse of Cl.c1ccc2sc(-c3nc4ccc(C5=NCCCN5)cc4s3)nc2c1 [Compound 5g]
RESULT: <30 %LBF

QUERY: Assign Microsomes (1 µM) Predicted in vivo hep CL, Mouse to the following record: N#Cc1ccc(-c2nc3cc(C4=NCCCN4)ccc3[nH]2)cc1 [Compound 6b]
RESULT: <30 %LBF

QUERY: State, in one line, measured Microsomes (1 µM) Predicted in vivo hep CL, Mouse of Cl.c1ccc2cc(-c3nc4ccc(C5=NCCCN5)cc4s3)ccc2c1 [Compound 5h]
RESULT: <30 %LBF

* * *

measurement_notes: Plasma protein binding, equilibrium dialysis
Format: in vitro ADME
applied_conditions: mouse plasma, recovery in PPB experiment (value in brackets)
test_readout: recovery at 4 h, 5 µM (%)

structure_smiles: c1ccc2c(c1)cc(-c1nc3cc(C4=NCCCN4)ccc3[nH]1)c1ccccc12
recovery at 4 h, 5 µM (%): 95

structure_smiles: Cl.c1ccc2cc(-c3nc4ccc(C5=NCCCN5)cc4s3)ccc2c1
recovery at 4 h, 5 µM (%): 85

structure_smiles: c1ccc2cc(-c3nc4cc(C5=NCCCN5)ccc4[nH]3)ccc2c1
recovery at 4 h, 5 µM (%): 102

structure_smiles: FC(F)(F)c1ccc(-c2nc3cc(C4=NCCCN4)ccc3[nH]2)cc1
recovery at 4 h, 5 µM (%): 117

structure_smiles: c1ccc(-c2nc3cc(C4=NCCCN4)ccc3[nH]2)cc1
recovery at 4 h, 5 µM (%): 79

structure_smiles: Cl.c1ccc2sc(-c3nc4ccc(C5=NCCCN5)cc4s3)cc2c1
recovery at 4 h, 5 µM (%): 82

* * *

measurement_notes: Plasma protein binding, equilibrium dialysis
Format: in vitro ADME
applied_conditions: human plasma, recovery in PPB experiment (value in brackets)
Description: The extent of binding to plasma proteins was assessed using equilibrium dialysis method. […] All ADME samples were analysed on a Sciex API 4000 or Sciex API4500 Triple Quadrupole Mass Spectrometer (Sciex, Framingham, MA, USA) coupled to a UHPLC System (Shimadzu Nexera X2; Shimadzu, Kyoto, Japan). […]
test_readout: recovery at 4 h, 5 µM (%)

structure_smiles: N#Cc1ccc(-c2nc3cc(C4=NCCCN4)ccc3[nH]2)cc1
unit_descriptor: %
recovery at 4 h, 5 µM: 91
--
structure_smiles: c1ccc(-c2nc3cc(C4=NCCCN4)ccc3[nH]2)cc1
unit_descriptor: %
recovery at 4 h, 5 µM: 75
--
structure_smiles: Cl.c1ccc2sc(-c3nc4ccc(C5=NCCCN5)cc4s3)nc2c1
unit_descriptor: %
recovery at 4 h, 5 µM: 94
--
structure_smiles: Cl.FC(F)(F)c1ccc(-c2nc3ccc(C4=NCCCN4)cc3s2)cc1
unit_descriptor: %
recovery at 4 h, 5 µM: 89
--
structure_smiles: c1ccc2sc(-c3nc4cc(C5=NCCCN5)ccc4[nH]3)cc2c1
unit_descriptor: %
recovery at 4 h, 5 µM: 86

* * *

Test system: P-glycoprotein (human MDR1)
measurement_notes: MDCKII-MDR1 permeability and P-glycoprotein substrate assay
Format: in vitro ADME, canine cells over-expressing human MDR1
applied_conditions: dog, MDCK-MDR1, pH 7.4; 10 µM, 60 min, without P-gp inhibitor; read-out: MDCKII-MDR1 Papp(B2A)
test_readout: Papp B→A at 60 min, 10 µM (×10⁻⁶ cm/s)

Example entries begin here.
molecule: Cl.FC(F)(F)c1ccc(-c2nc3ccc(C4=NCCCN4)cc3s2)cc1 [Compound 5c]
tested_system: P-glycoprotein (human MDR1)
unit_descriptor: ×10⁻⁶ cm/s
Papp B→A at 60 min, 10 µM: 21.5
//
molecule: Cl.N#Cc1ccc(-c2nc3ccc(C4=NCCCN4)cc3s2)cc1 [Compound 5b]
tested_system: P-glycoprotein (human MDR1)
unit_descriptor: ×10⁻⁶ cm/s
Papp B→A at 60 min, 10 µM: 20.5

P = Cl.c1ccc2cc(-c3nc4ccc(C5=NCCCN5)cc4s3)ccc2c1 [Compound 5h]
Q = Cl.c1ccc2nc(-c3nc4ccc(C5=NCCCN5)cc4s3)ccc2c1 [Compound 5d]
QUERY: Please compare: P and Q . Report which one has the smaller Papp B→A at 60 min, 10 µM value. Give the label under which the chosen entry appears.
RESULT: P

* * *

measurement_notes: Stability in plasma
Type: in vitro ADME
applied_conditions: mouse plasma, 37 °C
test_readout: remaining at 4 h, 5 µM (%)

structure_smiles: c1ccc2c(-c3nc4ccc(C5=NCCCN5)cc4[nH]3)c[nH]c2c1
remaining at 4 h, 5 µM, %: 84
//
structure_smiles: Cl.c1ccc2sc(-c3nc4ccc(C5=NCCCN5)cc4s3)nc2c1
remaining at 4 h, 5 µM, %: 81
//
structure_smiles: Cl.FC(F)(F)c1ccc(-c2nc3ccc(C4=NCCCN4)cc3s2)cc1
remaining at 4 h, 5 µM, %: 94
//
structure_smiles: c1ccc(-c2nc3cc(C4=NCCCN4)ccc3[nH]2)cc1
remaining at 4 h, 5 µM, %: 79
//
structure_smiles: Cl.c1ccc2cc(-c3nc4ccc(C5=NCCCN5)cc4s3)ccc2c1
remaining at 4 h, 5 µM, %: 85
//
structure_smiles: Cl.N#Cc1ccc(-c2nc3ccc(C4=NCCCN4)cc3s2)cc1
remaining at 4 h, 5 µM, %: 95
